target: human JAK2 (Homo sapiens); construct: catalytic domain (amino acids 808-1132; catalog number PV4210); GST; assay: JAK2 inhibition assay (polyGT substrate / Ulight-JAK1 peptide); details: recombinant human JAK2 catalytic domain; polyGT or Ulight-JAK1 peptide assay
Sequence (O60674 808-1132): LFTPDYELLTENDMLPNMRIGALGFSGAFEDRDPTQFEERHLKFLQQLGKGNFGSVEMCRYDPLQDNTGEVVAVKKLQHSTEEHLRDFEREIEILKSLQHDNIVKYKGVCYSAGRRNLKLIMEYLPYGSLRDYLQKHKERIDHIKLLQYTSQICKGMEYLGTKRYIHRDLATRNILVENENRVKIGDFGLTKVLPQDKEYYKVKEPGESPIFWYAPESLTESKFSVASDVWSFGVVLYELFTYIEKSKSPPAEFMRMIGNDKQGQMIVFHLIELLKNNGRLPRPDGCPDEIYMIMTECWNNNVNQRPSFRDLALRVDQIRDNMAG
Assign IC50 to each entry below.

- compound: "CCc1cc(C2CN(C(=O)C3CC(F)(F)C3)C2)ncc1N(C)c1cc2c(cn1)ncn2C"
  IC50: "> 1000 nM"
- compound: "CCc1cc(C(C#N)N2CCOCC2)ncc1N(C)c1cc2c(cn1)ncn2C (stereo not shown)"
  IC50: "0.01 to 100 nM"
- compound: "CCc1cc(C(C#N)N2CCC(S(C)(=O)=O)CC2)ccc1N(C)c1cc2c(cn1)ncn2C (stereo not shown)"
  IC50: "0.01 to 100 nM"
- compound: "CCNC(=O)C1CN(c2cc(CC)c(N(C)c3cc4c(cn3)ncn4C)cn2)C1"
  IC50: "501 to 1000 nM"
- compound: "CCc1ncncc1N(C)c1cc2c(cn1)ncn2C"
  IC50: "> 1000 nM"
- compound: "COc1ccc(N(C)c2cc3c(cn2)ncn3C)c(C)c1"
  IC50: "> 1000 nM"
- compound: "CN(c1cc2c(cn1)ncn2C)c1c(F)cc(CNS(C)(=O)=O)cc1F"
  IC50: "0.01 to 100 nM"
- compound: "CCc1cc(C2CN(C(=O)C(F)(F)F)C2)ccc1N(C)c1cc2c(cn1)ncn2C"
  IC50: "101 to 500 nM"
- compound: "CCc1cc(CC#N)ncc1N(C)c1cc2c(cn1)ncn2C"
  IC50: "0.01 to 100 nM"
- compound: "COc1ccccc1N(C)c1cc2c(cn1)ncn2C"
  IC50: "> 1000 nM"

I'm hoping you can list IC50 for every compound here, please.
1. CN(c1cc2c(cn1)ncn2C)c1c(F)cc(C#N)cc1F
2. Cc1c(OCCN2CCCC2)cccc1N(C)c1cc2c(cn1)ncn2C
3. CCOC(=O)C1CN(C(C#N)c2ccc(N(C)c3cc4c(cn3)ncn4C)c(CC)c2)C1 (stereo not shown)
4. CCc1cc(CN(CC#N)S(C)(=O)=O)ccc1N(C)c1cc2c(cn1)ncn2C
5. CCc1cn(C2(CC#N)CNC2)nc1N(C)c1cc2c(cn1)ncn2C
6. CCc1cc(F)ccc1N(C)c1cc2c(cn1)ncn2C

> 1000 nM
> 1000 nM
0.01 to 100 nM
0.01 to 100 nM
> 1000 nM
501 to 1000 nM

I'm hoping you can list IC50 for every compound here, please.
1. CCN(c1ccc(CO)cc1)c1cc2c(cn1)ncn2C
2. Cc1ccc(OCc2cccnc2)cc1N(C)c1cc2c(cn1)ncn2C
3. CCc1cc(CNS(N)(=O)=O)ccc1N(C)c1cc2c(cn1)ncn2C

1. > 1000 nM
2. > 1000 nM
3. 0.01 to 100 nM

----------
biological target: human JAK3 (Homo sapiens, UniProt P52333); construct: catalytic domain (amino acids 781-1124; catalog number PV3855); test: JAK3 inhibition assay; conditions: recombinant human JAK3 catalytic domain; polyGT substrate
Sequence (P52333 781-1124): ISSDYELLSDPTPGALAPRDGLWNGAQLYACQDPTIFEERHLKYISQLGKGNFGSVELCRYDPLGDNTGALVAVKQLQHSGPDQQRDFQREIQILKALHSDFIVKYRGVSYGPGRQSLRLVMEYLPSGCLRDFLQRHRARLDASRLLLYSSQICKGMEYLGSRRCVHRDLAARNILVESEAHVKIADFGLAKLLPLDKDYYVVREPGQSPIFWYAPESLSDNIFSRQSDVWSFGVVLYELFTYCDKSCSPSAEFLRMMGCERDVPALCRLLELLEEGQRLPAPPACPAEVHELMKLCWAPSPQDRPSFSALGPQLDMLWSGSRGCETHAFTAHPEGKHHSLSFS
pIC50: −log10 of the molar value.
Assign pIC50 to each entry below.

- compound: "CN(c1cc2c(cn1)ncn2C)c1ccccc1OC(F)F"
  measurement kind: "pIC50"
  result: "6.00 to 6.30"
- compound: "CCc1cc(C2CN(C(=O)CC#N)C2)ncc1N(C)c1cc2c(cn1)ncn2C"
  measurement kind: "pIC50"
  result: "< 6.00"
- compound: "CCc1cc(C2CN(C(=O)CCC(F)(F)F)C2)ncc1N(C)c1cc2c(cn1)ncn2C"
  measurement kind: "pIC50"
  result: "< 6.00"
- compound: "CCc1cc(-c2cnc(OCC#N)nc2)ccc1N(C)c1cc2c(cn1)ncn2C"
  measurement kind: "pIC50"
  result: "< 6.00"
- compound: "CCc1cc(N2CC(NS(C)(=O)=O)C2)ncc1N(C)c1cc2c(cn1)ncn2C"
  measurement kind: "pIC50"
  result: "6.30 to 7.00"
- compound: "CCc1ccccc1N(Cc1cccnc1)c1cc2c(cn1)ncn2C"
  measurement kind: "pIC50"
  result: "< 6.00"

I'm hoping you can list pIC50 for every compound here, please.
1. CCc1cc(C(C#N)N2CCN(C)CC2)ccc1N(C)c1cc2c(cn1)ncn2C (stereo not drawn)
2. Cc1ccc(OCc2ccccc2)cc1N(C)c1cc2c(cn1)ncn2C
3. CCc1cc(C2CN(C(=O)C(F)(F)F)C2)ncc1N(C)c1cc2c(cn1)ncn2C
4. CCc1cc(CNS(=O)(=O)C(F)F)ncc1N(C)c1cc2c(cn1)ncn2C
5. Cc1cc(OCc2cccnc2)ccc1N(C)c1cc2c(cn1)ncn2C
6. CCc1cc(CNS(C)(=O)=O)ccc1N(C)c1cc2c(cn1)ncn2C

["< 6.00", "< 6.00", "6.30 to 7.00", "6.30 to 7.00", "< 6.00", "7.00 to 11.00"]

I'm hoping you can list pIC50 for every compound here, please.
1. CCc1cc(CN(C)S(C)(=O)=O)c(F)cc1N(C)c1cc2c(cn1)ncn2C
2. CCc1cc(O[C@@H]2CCN(S(C)(=O)=O)C2)ccc1N(C)c1cc2c(cn1)ncn2C
3. CCc1cc(C2CCN(S(C)(=O)=O)CC2)ncc1N(C)c1cc2c(cn1)ncn2C
4. CCC(=O)N1CC(c2cc(CC)c(N(C)c3cc4c(cn3)ncn4C)cn2)C1
5. CCc1cc(OC)ccc1N(C)c1cc2c(cn1)ncn2C
6. CN(c1cc2c(cn1)ncn2C)c1ccc(C2CN(S(=O)(=O)N3CCOCC3)C2)cc1OC(F)F

7.00 to 11.00
6.00 to 6.30
6.00 to 6.30
< 6.00
6.00 to 6.30
< 6.00
